- Tested on: 242566-281-R-J2-PDC complex spheroid viability;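 note: spheroids exposed to compound for 7 days before readout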
- Assay Text: Anticancer human tumor 242566-281-R-J2-PDC patient-derived pancreatic carcinoma cell line growth inhibition [RAS]
- Run Parameters: curve of first compound; second compound 0.316 µM
Recorded Endpoint: IC50

Recorded IC50, per entry:
>>> assay_result("CC1(C)CCC(Nc2ncc(C(F)(F)F)c(-c3c[nH]c4c(P(C)(C)=O)c(C#N)ccc34)n2)CN1 (stereo not given) + C=CC(=O)N1CCN(c2nc(OCC3CCCN3C)nc3c(F)c(-c4nc(N)cc(C)c4C(F)(F)F)c(Cl)cc23)C(C)C1")
"> 0.3 µM"
>>> assay_result("Cc1nc(N2CCC3(CC2)COC(C)C3N)c(CO)nc1Sc1ccnc(N)c1Cl (stereo not given) + C#Cc1c(F)ccc2cc(O)cc(-c3ncc4c(N5CC6CCC(C5)N6)nc(OCC56CCCN5CC(F)C6)nc4c3F)c12")
"0.184 µM"
>>> assay_result("NC1c2ccccc2OC12CCN(c1cnc3c(N4CCCc5ncccc54)n[nH]c3n1)CC2 (stereo not given) + C=CC(=O)N1CCN(c2nc(OCC3CCCN3C)nc3c(F)c(-c4nc(N)cc(C)c4C(F)(F)F)c(Cl)cc23)C(C)C1")
"> 10 µM"
>>> assay_result("CCN1CCN(Cc2ccc(Nc3ncc(F)c(-c4cc(F)c5nc(C)n(C(C)C)c5c4)n3)nc2)CC1 + C=CC(=O)N1CCN(c2nc(OCC3CCCN3C)nc3c(F)c(-c4nc(N)cc(C)c4C(F)(F)F)c(Cl)cc23)C(C)C1")
"> 1 µM"
>>> assay_result("CC1(O)CCCC1n1c(=O)c(C(F)F)cc2cnc(NC3CCN(S(C)(=O)=O)CC3)nc21 (stereo not given) + C=CC(=O)N1CCN(c2nc(OCC3CCCN3C)nc3c(F)c(-c4nc(N)cc(C)c4C(F)(F)F)c(Cl)cc23)C(C)C1")
"> 10 µM"

[in] Entry under review: CCC(CC)c1cc(NC2CCC(N)C2)n2nccc2n1 (stereo not given) + C#Cc1c(F)ccc2cc(O)cc(-c3ncc4c(N5CC6CCC(C5)N6)nc(OCC56CCCN5CC(F)C6)nc4c3F)c12 . Reported IC50?
[out] 1.45 µM

[in] Try the molecule C=CC(=O)Nc1cc(Nc2nccc(-c3cn(C)c4ccccc34)n2)c(OC)cc1N(C)CCN(C)C + C=CC(=O)N1CCN(c2nc(OCC3CCCN3C)nc3c(F)c(-c4nc(N)cc(C)c4C(F)(F)F)c(Cl)cc23)C(C)C1
[out] > 1 µM

[in] Try the molecule CC(C)n1nc(-c2ccc3oc(N)nc3c2)c2c(N)ncnc21 + C=CC(=O)N1CCN(c2nc(OCC3CCCN3C)nc3c(F)c(-c4nc(N)cc(C)c4C(F)(F)F)c(Cl)cc23)C(C)C1
[out] > 0.1 µM

[in] Try the molecule CC1(O)CCCC1n1c(=O)c(C(F)F)cc2cnc(NC3CCN(S(C)(=O)=O)CC3)nc21 (stereo not given) + C#Cc1c(F)ccc2cc(O)cc(-c3ncc4c(N5CC6CCC(C5)N6)nc(OCC56CCCN5CC(F)C6)nc4c3F)c12
[out] 6.91 µM

[in] Try the molecule CCc1c2c(nc3ccc(O)cc13)-c1cc3c(c(=O)n1C2)COC(=O)[C@]3(O)CC + C#Cc1c(F)ccc2cc(O)cc(-c3ncc4c(N5CC6CCC(C5)N6)nc(OCC56CCCN5CC(F)C6)nc4c3F)c12
[out] 0.0151 µM
